Test system: HT29 colon
method: NCI tumour cell line growth inhibition, 48 h
Give TGI for every item shown.
Reply with just the number (in µM).

# query: TGI of entry CC(C)CCCC(=O)CCCCCCC(=O)CCN(O)C(=O)C(N)CO (centres undefined) 43.5

TGI for `CC(=O)O.[Au].c1ccc([PH+](c2ccccc2)c2ccccc2)cc1` ? 32.5

// TGI lookup, key: `O=C(/C=C\n1cnc(-c2cc(C(F)(F)F)cc(C(F)(F)F)c2)n1)NNc1cnccn1` 22.4

What value of TGI has been recorded for this entry: `Cc1ccc(NC(=S)N/N=C(/c2ccccc2)c2ccccn2)cc1` 20.3

Recorded TGI for `N#Cc1c(Cl)c2cc([N+](=O)[O-])ccc2n2c1nc1ccccc12` , please? 18.4

Could you share which TGI value was measured for `COc1ccc(OC)c(C(=O)c2oc3ccc(Br)cc3c2N)c1` ? 10.7

Param item = `O=C(O)[C@@H]1CCCCN1Cc1cc2cc3c(cc2c2cc(OCc4ccccc4)ccc12)OCO3` ; retrieve measured TGI. 15.8

Value lookup for TGI; key = `CC[C@H](C)[C@H]1O[C@]2(C=C[C@@H]1C)C[C@@H]1C[C@@H](C/C=C(\C)[C@@H](O[C@H]3C[C@H](OC)[C@@H](O[C@H]4C[C@H](OC)[C@@H](NC)[C@H](C)O4)[C@H](C)O3)[C@@H](C)/C=C/C=C3\CO[C@@H]4[C@H](O)C(C)=C[C@@H](C(=O)O1)[C@]34O)O2` 4.14

# lookup: TGI of `Cc1nc(-c2ccccc2)c(-c2ccccc2)s1` 41.7
